# Test system: COLO 205
# MEASUREMENT PROTOCOL: Cytotoxicity against human COLO205 cells after 48 hrs by MTT assay
# CONDITION SET: COLO 205, 48 h
METRIC NAME: IC50 (µg/mL)

COMPOUND: NS(=O)(=O)c1ccc(N2C(=O)CSC2c2ccc(F)cc2)cc1 (stereo not given)
ASSAYED SYSTEM: COLO 205
READOUT UNITS: µg/mL
MEASUREMENT: 31.4

COMPOUND: NS(=O)(=O)c1ccc(N2C(=O)CSC2c2ccccc2)cc1 (stereo not given)
ASSAYED SYSTEM: COLO 205
READOUT UNITS: µg/mL
MEASUREMENT: 30.6

COMPOUND: NS(=O)(=O)c1ccc(N2C(=O)CSC2c2ccccc2Cl)cc1 (stereo not given)
ASSAYED SYSTEM: COLO 205
READOUT UNITS: µg/mL
MEASUREMENT: 19.5

COMPOUND: NS(=O)(=O)c1ccc(N2C(=O)CSC2c2ccccc2Br)cc1 (stereo not given)
ASSAYED SYSTEM: COLO 205
READOUT UNITS: µg/mL
MEASUREMENT: 27.5

COMPOUND: NS(=O)(=O)c1ccc(N2C(=O)CSC2c2ccc(Br)cc2)cc1 (stereo not given)
ASSAYED SYSTEM: COLO 205
READOUT UNITS: µg/mL
MEASUREMENT: 23.1

COMPOUND: NS(=O)(=O)c1ccc(N2C(=O)CSC2c2ccc(Cl)cc2)cc1 (stereo not given)
ASSAYED SYSTEM: COLO 205
READOUT UNITS: µg/mL
MEASUREMENT: 15.4

COMPOUND: NS(=O)(=O)c1ccc(N2C(=O)CSC2c2cccc(Cl)c2)cc1 (stereo not given)
ASSAYED SYSTEM: COLO 205
READOUT UNITS: µg/mL
MEASUREMENT: 5.03

COMPOUND: NS(=O)(=O)c1ccc(N2C(=O)CSC2c2cccc(Br)c2)cc1 (stereo not given)
ASSAYED SYSTEM: COLO 205
READOUT UNITS: µg/mL
MEASUREMENT: 16.9

COMPOUND: NS(=O)(=O)c1ccc(N2C(=O)CSC2c2cccc(F)c2)cc1 (stereo not given)
ASSAYED SYSTEM: COLO 205
READOUT UNITS: µg/mL
MEASUREMENT: 29.8

COMPOUND: NS(=O)(=O)c1ccc(N2C(=O)CSC2c2ccccc2F)cc1 (stereo not given)
ASSAYED SYSTEM: COLO 205
READOUT UNITS: µg/mL
MEASUREMENT: 34.7
